Test system: S. aureus P2
EXPERIMENT_SUMMARY: Antibacterial activity, pre-exposure
Type: cell-based, Staphylococcus aureus
RECORDED_CONDITIONS: Staphylococcus aureus; S. aureus P2, pre-exposure, 10 µM, ± SD; read-out: Average inhibition %, biofilms biomass
Entries annotated with measured inhibition at 10 µM

>  <MOLECULE>
CCCCCCCCCCc1ccc(C(O)CC(N)(CO)CO)cc1 (stereo not drawn) [Compound 55]

>  <inhibition at 10 µM [%]>
96.5

$$$$
>  <MOLECULE>
CCCCCCCCc1ccc2nc(CCC(N)(CO)CO)ccc2c1 [Compound 80]

>  <inhibition at 10 µM [%]>
95.4

$$$$
>  <MOLECULE>
CCCCCCCCc1ccc2cc(CC(N)(CO)CO)ccc2c1 [Compound 79]

>  <inhibition at 10 µM [%]>
95.8

$$$$
>  <MOLECULE>
CCCCCCCCc1ccc(CCC(N)(CO)CO)cc1 [fingolimod, Fingolimod]

>  <inhibition at 10 µM [%]>
64.3

$$$$
>  <MOLECULE>
CCCCCCCCc1ccc2ccc(CC(N)(CO)CO)nc2c1 [Compound 82]

>  <inhibition at 10 µM [%]>
97.6

$$$$
>  <MOLECULE>
CCCCCCCCCCc1ccc2nc(CCC(N)(CO)CO)ccc2c1 [Compound 81]

>  <inhibition at 10 µM [%]>
96.6

$$$$

====

Entries annotated with measured inhibition at 25 µM
System: A. baumannii NCTC 13423
EXPERIMENT_SUMMARY: Antibacterial activity, pre-exposure
Type: cell-based, Acinetobacter baumannii
RECORDED_CONDITIONS: Acinetobacter baumannii, NCTC13423; A. baumannii NCTC 13423, pre-exposure, 25 µM, ± SD; read-out: Average inhibition %, planktonic cells turbidity

>  <MOLECULE>
CCCCCCCCc1ccc(CC(N)(CO)CO)cc1 [Compound 44]

>  <UNIT_TEXT>
%

>  <inhibition at 25 µM>
88.1

$$$$
>  <MOLECULE>
CCCCCCCCCCc1ccc(CCC(N)(CO)CO)nc1 [Compound 62]

>  <UNIT_TEXT>
%

>  <inhibition at 25 µM>
99.2

$$$$
>  <MOLECULE>
CCCCCCCCc1cccc(CCC(N)(CO)CO)c1 [Compound 43]

>  <UNIT_TEXT>
%

>  <inhibition at 25 µM>
99.1

$$$$
>  <MOLECULE>
CCCCCCCCCCc1ccc(C(O)CC(N)(CO)CO)cc1 (stereo not shown) [Compound 55]

>  <UNIT_TEXT>
%

>  <inhibition at 25 µM>
99.5

$$$$
>  <MOLECULE>
CCCCCCCCc1ccc(CCC(N)(CO)CO)cc1 [fingolimod, Fingolimod]

>  <UNIT_TEXT>
%

>  <inhibition at 25 µM>
98.8

$$$$
>  <MOLECULE>
CCCCCCCCc1ccc2nc(CCC(N)(CO)CO)ccc2c1 [Compound 80]

>  <UNIT_TEXT>
%

>  <inhibition at 25 µM>
99

$$$$
>  <MOLECULE>
CCCCCCCCOc1ccc(CCC(N)(CO)CO)cc1 [Compound 48]

>  <UNIT_TEXT>
%

>  <inhibition at 25 µM>
63.2

$$$$
>  <MOLECULE>
CCCCCCCCc1ccc2cc(CC(N)(CO)CO)ccc2c1 [Compound 79]

>  <UNIT_TEXT>
%

>  <inhibition at 25 µM>
0

$$$$
>  <MOLECULE>
CCCCCCCCc1ccc2ccc(CC(N)(CO)CO)nc2c1 [Compound 82]

>  <UNIT_TEXT>
%

>  <inhibition at 25 µM>
99.8

$$$$
>  <MOLECULE>
CCCCCC/C=C/c1ccc(CCC(N)(CO)CO)cc1 [Compound 42]

>  <UNIT_TEXT>
%

>  <inhibition at 25 µM>
40.8

$$$$
>  <MOLECULE>
CCCCCCCCCCc1ccc2nc(CC(N)(CO)CO)ccc2c1 [Compound 83]

>  <UNIT_TEXT>
%

>  <inhibition at 25 µM>
11.8

$$$$
>  <MOLECULE>
CCCCCCCCc1ccc(C(O)CC(N)(CO)CO)cc1 (stereo not shown) [Compound 54]

>  <UNIT_TEXT>
%

>  <inhibition at 25 µM>
0

$$$$
>  <MOLECULE>
CCCCCCCCCCc1ccc(CCC(N)(CO)CO)cc1 [Compound 11]

>  <UNIT_TEXT>
%

>  <inhibition at 25 µM>
0

$$$$
>  <MOLECULE>
CCCCCCCCCCc1ccc2nc(CCC(N)(CO)CO)ccc2c1 [Compound 81]

>  <UNIT_TEXT>
%

>  <inhibition at 25 µM>
0

$$$$
>  <MOLECULE>
CCCCCCCCCCOc1ccc(CCC(N)(CO)CO)cc1 [Compound 49]

>  <UNIT_TEXT>
%

>  <inhibition at 25 µM>
0

$$$$
>  <MOLECULE>
CCCCCc1ccc(-c2ccc(CCC(N)(CO)CO)cc2)cc1 [Compound 15]

>  <UNIT_TEXT>
%

>  <inhibition at 25 µM>
0

$$$$

====

System: P. aeruginosa ATCC 9027
EXPERIMENT_SUMMARY: Antibacterial activity, pre-exposure
Assay type: cell-based, Pseudomonas aeruginosa
RECORDED_CONDITIONS: Pseudomonas aeruginosa, ATCC9027, supplementary molecular formula strings sheet; read-out: MIC (P. aeruginosa)

>  <COMPOUND>
CCCCCCCCc1ccc(C(O)CC(N)(CO)CO)cc1 (stereo not drawn) [Compound 54]

>  <TESTED_TARGET>
P. aeruginosa ATCC 9027

>  <MIC>
100 µM

$$$$
>  <COMPOUND>
CCCCCCCCOc1ccc(CCC(N)(CO)CO)cc1 [Compound 48]

>  <TESTED_TARGET>
P. aeruginosa ATCC 9027

>  <MIC>
> 200 µM

$$$$
>  <COMPOUND>
CCCCCCCCc1ccc(CC(N)(CO)CO)cc1 [Compound 44]

>  <TESTED_TARGET>
P. aeruginosa ATCC 9027

>  <MIC>
> 200 µM

$$$$
>  <COMPOUND>
CCCCCCCCc1cccc(CCC(N)(CO)CO)c1 [Compound 43]

>  <TESTED_TARGET>
P. aeruginosa ATCC 9027

>  <MIC>
50 to 100 µM

$$$$
>  <COMPOUND>
CCCCCCCCc1ccc2ccc(CC(N)(CO)CO)nc2c1 [Compound 82]

>  <TESTED_TARGET>
P. aeruginosa ATCC 9027

>  <MIC>
> 200 µM

$$$$
>  <COMPOUND>
CCCCCCCCCCc1ccc(CCC(N)(CO)CO)nc1 [Compound 62]

>  <TESTED_TARGET>
P. aeruginosa ATCC 9027

>  <MIC>
> 200 µM

$$$$

====

Tested on: S. aureus ATCC 25923
EXPERIMENT_SUMMARY: Antibacterial activity, post-exposure on preformed 18-h-old biofilms
Type: cell-based, Staphylococcus aureus
RECORDED_CONDITIONS: Staphylococcus aureus, ATCC25923, 50 µM, ± SD, read-out: Average inhibition %, planktonic cells turbidity
Entries annotated with measured inhibition at 50 µM

>  <COMPOUND>
CCCCCCCCCCc1ccc2nc(CCC(N)(CO)CO)ccc2c1 [Compound 81]

>  <inhibition at 50 µM>
10%

$$$$
>  <COMPOUND>
CCCCCCCCc1ccc(CC(N)(CO)CO)cc1 [Compound 44]

>  <inhibition at 50 µM>
58.6%

$$$$
>  <COMPOUND>
CCCCCCCCCCc1ccc2nc(CC(N)(CO)CO)ccc2c1 [Compound 83]

>  <inhibition at 50 µM>
28.3%

$$$$
>  <COMPOUND>
CCCCCCCCCCc1ccc(CCC(N)(CO)CO)cc1 [Compound 11]

>  <inhibition at 50 µM>
14%

$$$$
>  <COMPOUND>
CCCCCC/C=C/c1ccc(CCC(N)(CO)CO)cc1 [Compound 42]

>  <inhibition at 50 µM>
29.7%

$$$$
>  <COMPOUND>
CCCCCc1ccc(-c2ccc(CCC(N)(CO)CO)cc2)cc1 [Compound 15]

>  <inhibition at 50 µM>
14.7%

$$$$
>  <COMPOUND>
CCCCCCCCCCOc1ccc(CCC(N)(CO)CO)cc1 [Compound 49]

>  <inhibition at 50 µM>
6.6%

$$$$
>  <COMPOUND>
CCCCCCCCOc1ccc(CCC(N)(CO)CO)cc1 [Compound 48]

>  <inhibition at 50 µM>
12.6%

$$$$
>  <COMPOUND>
CCCCCCCCCCc1ccc(CCC(N)(CO)CO)nc1 [Compound 62]

>  <inhibition at 50 µM>
16.7%

$$$$
>  <COMPOUND>
CCCCCCCCc1ccc2ccc(CC(N)(CO)CO)nc2c1 [Compound 82]

>  <inhibition at 50 µM>
34.6%

$$$$

====

EXPERIMENT_SUMMARY: Cytotoxicity, resazurin staining assay
Format: cell-based, human
RECORDED_CONDITIONS: human, HL-60 cells; 24 h incubation

>  <COMPOUND>
CCCCCCCCc1cccc(CCC(N)(CO)CO)c1 [Compound 43]

>  <CC50 at 24 h / µM>
23.4

$$$$
>  <COMPOUND>
CCCCCCCCCCc1ccc(C(O)CC(N)(CO)CO)cc1 (stereo not drawn) [Compound 55]

>  <CC50 at 24 h / µM>
7.4

$$$$
>  <COMPOUND>
CCCCCCCCCCc1ccc(CCC(N)(CO)CO)nc1 [Compound 62]

>  <CC50 at 24 h / µM>
3.6

$$$$
>  <COMPOUND>
CCCCCCCCc1ccc2cc(CC(N)(CO)CO)ccc2c1 [Compound 79]

>  <CC50 at 24 h / µM>
26.9

$$$$
>  <COMPOUND>
CCCCCCCCc1ccc(CCC(N)(CO)CO)cc1 [fingolimod, Fingolimod]

>  <CC50 at 24 h / µM>
36.1

$$$$
>  <COMPOUND>
CCCCCCCCc1ccc2ccc(CC(N)(CO)CO)nc2c1 [Compound 82]

>  <CC50 at 24 h / µM>
6.5

$$$$
